Target: JR-FL gp120 ΔV1/ΔV2 (HIV-1 (isolate JR-FL))
Test: ELISA on coated gp120; EC50 by nonlinear regression
READOUT_NAME: EC50 (µg/mL)
Please reply with the bare figure in µg/mL and do not write the unit itself.

PGT-128 (antibody, V domains shown) VH: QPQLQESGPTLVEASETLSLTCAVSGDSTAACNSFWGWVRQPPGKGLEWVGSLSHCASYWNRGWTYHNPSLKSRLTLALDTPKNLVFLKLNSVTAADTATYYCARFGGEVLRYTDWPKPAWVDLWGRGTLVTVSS VL: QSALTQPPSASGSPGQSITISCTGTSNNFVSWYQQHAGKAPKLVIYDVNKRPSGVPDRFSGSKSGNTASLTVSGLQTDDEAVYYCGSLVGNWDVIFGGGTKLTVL    0.3
PGT-135 (antibody, V domains shown) VH: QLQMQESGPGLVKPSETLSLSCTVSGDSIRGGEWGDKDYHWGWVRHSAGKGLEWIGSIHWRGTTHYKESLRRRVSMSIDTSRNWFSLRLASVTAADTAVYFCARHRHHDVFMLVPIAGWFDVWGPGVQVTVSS VL: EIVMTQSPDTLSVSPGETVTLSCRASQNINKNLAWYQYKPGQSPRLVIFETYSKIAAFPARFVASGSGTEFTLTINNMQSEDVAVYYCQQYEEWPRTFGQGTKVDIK    0.1

We next turn to a different binder, shown below.
INPUT: Given the binder PGT-125 (antibody, V domains shown) VH: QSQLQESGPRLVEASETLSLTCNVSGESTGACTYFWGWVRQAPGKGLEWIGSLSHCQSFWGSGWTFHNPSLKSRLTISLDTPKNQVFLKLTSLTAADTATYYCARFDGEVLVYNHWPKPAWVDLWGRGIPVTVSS VL: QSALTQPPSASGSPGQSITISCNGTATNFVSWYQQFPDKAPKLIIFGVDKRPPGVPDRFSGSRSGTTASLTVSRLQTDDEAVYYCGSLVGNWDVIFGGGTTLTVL , what is its reported EC50?
OUTPUT: 0.6
